# System: NCI-H322M lung
# run description: NCI-60 one-dose screen, 48 h (100 = growth as untreated, 0 = no growth, -100 = all killed)
# condition parameters: 10 µM unless noted
This is part of a sample that, as a whole, favours compounds with a hit. Of some 83,000 tested, about 20% had one in any assay.
Each entry gets F if its growth stays under 80%, and T if its growth is 80% or above.

Confirm if growth reported for the compound "Nc1c(C(=O)Nc2cccc(Cl)c2Cl)sc2nc3c(cc12)C(=O)CCC3" is 80% or above. F

Confirm if growth reported for the compound "COc1ccccc1CNCCCN1C(=O)c2ccc3c4c(ccc(c24)C1=O)C(=O)N(CCCNCCCCNCCCCN)C3=O" is 80% or above. F

Confirm if growth reported for the compound "O=P([O-])(O)OP(=O)([O-])O.[NH-][C@H]1CCCC[C@@H]1[NH-].[OH-].[OH-].[Pt+4]" is 80% or above. T

Confirm if growth reported for the compound Cc1cnc(NC(=O)C(Cc2ccccc2)NC(=O)c2ccccc2)s1 (stereo not given) is 80% or above. T
